TGT: KRAS G12D (Homo sapiens, UniProt P01116, G12D)
Sequence (P01116 1-188 isoform P01116-2 G12D): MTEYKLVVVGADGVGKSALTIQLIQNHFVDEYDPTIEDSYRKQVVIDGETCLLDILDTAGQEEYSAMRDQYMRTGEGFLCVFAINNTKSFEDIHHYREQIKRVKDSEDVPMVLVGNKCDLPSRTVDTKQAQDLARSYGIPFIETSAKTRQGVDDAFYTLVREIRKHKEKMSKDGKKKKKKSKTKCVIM
In plain terms, low DC50, meaning strictly below 10 nM, gives class 1, and everything else gives class 0.

1. CCc1c(F)ccc2cc(O)cc(-c3ncc4c(N5CCC[C@@](C)(O)C5)nc(OCC5(CN6CCC7(CC6)CN(c6ccc(-c8cn([C@H](C(=O)N9C[C@H](O)C[C@H]9C(=O)N[C@@H](C)c9ccc(-c%10scnc%10C)cc9)C(C)C)nn8)cc6)C7)CC5)nc4c3F)c12 :: class 0
2. CCc1c(F)ccc2cc(O)cc(-c3ncc4c(N5CCC[C@@](C)(O)C5)nc(OCC5(CN6C[C@@H]7CN(c8cc([C@H](C(=O)N9C[C@H](O)C[C@H]9C(=O)N[C@@H](C)c9ccc(-c%10scnc%10C)cc9)C(C)C)on8)C[C@@H]7C6)CC5)nc4c3F)c12 :: class 1
3. C=C1CN2[C@H](CN3CCC(c4cn([C@H](C(=O)N5C[C@H](O)C[C@H]5C(=O)N[C@@H](C)c5ccc(-c6scnc6C)cc5)C(C)C)nn4)CC3)CC[C@@]2(COc2nc(N3CCC[C@@](C)(O)C3)c3cnc(-c4cc(O)cc5ccc(F)c(CC)c45)c(F)c3n2)C1 :: class 0
4. CCc1c(F)ccc2cc(O)cc(-c3ncc4c(N5CCC[C@@](C)(O)C5)nc(OCC5(CN6CCC(N7CCN(c8cc([C@H](C(=O)N9C[C@H](O)C[C@H]9C(=O)N[C@@H](C)c9ccc(-c%10scnc%10C)cc9)C(C)C)on8)CC7)CC6)CC5)nc4c3F)c12 :: class 0
5. CCc1c(F)ccc2cc(O)cc(-c3ncc4c(N5CCC[C@@](C)(O)C5)nc(OCCN5CCC(COc6ccc(-c7cn([C@H](C(=O)N8C[C@H](O)C[C@H]8C(=O)N[C@@H](C)c8ccc(-c9scnc9C)cc8)C(C)C)nn7)cc6)CC5)nc4c3F)c12 :: class 0
6. CCc1c(F)ccc2cc(O)cc(-c3ncc4c(N5CCC[C@@](C)(O)C5)nc(OCC5(CN6CCC(Oc7ccc(-c8cn([C@H](C(=O)N9C[C@H](O)C[C@H]9C(=O)N[C@@H](C)c9ccc(-c%10scnc%10C)cc9)C(C)C)nn8)nc7)CC6)CC5)nc4c3F)c12 :: class 1
7. CCc1c(F)ccc2cc(O)cc(-c3ncc4c(N5CCC[C@@](C)(O)C5)nc(OCC5(CN6CCC(c7ccc(-c8cn([C@H](C(=O)N9C[C@H](O)C[C@H]9C(=O)N[C@@H](C)c9ccc(-c%10scnc%10C)cc9)C(C)C)nn8)cc7)CC6)CC5)nc4c3F)c12 :: class 0
8. CCc1c(F)ccc2cc(O)cc(-c3ncc4c(N5CCC[C@@](C)(O)C5)nc(OCC5(CN6CCC(Oc7ccc(-c8cn([C@H](C(=O)N9C[C@H](O)C[C@H]9C(=O)N[C@@H](C)c9ccc(-c%10scnc%10C)cc9)C(C)C)nn8)cn7)CC6)CC5)nc4c3F)c12 :: class 0
9. CCc1c(F)ccc2cc(O)cc(-c3ncc4c(N5CCC[C@@](C)(O)C5)nc(OCC5(CN6CCC7(CC6)CCN(c6cc([C@H](C(=O)N8C[C@H](O)C[C@H]8C(=O)N[C@@H](C)c8ccc(-c9scnc9C)cc8)C(C)C)on6)CC7)CC5)nc4c3F)c12 :: class 1
10. CCc1c(F)ccc2cc(O)cc(-c3ncc4c(N5CCC[C@@](C)(O)C5)nc(OCC5(CN6CCC(Oc7cc(-c8cn([C@H](C(=O)N9C[C@H](O)C[C@H]9C(=O)N[C@@H](C)c9ccc(-c%10scnc%10C)cc9)C(C)C)nn8)ccn7)CC6)CC5)nc4c3F)c12 :: class 0
11. CCc1c(F)ccc2cc(O)cc(-c3ncc4c(N5CCC[C@@](C)(O)C5)nc(OCCN5CCC(CCOc6cc([C@H](C(=O)N7C[C@H](O)C[C@H]7C(=O)N[C@@H](C)c7ccc(-c8scnc8C)cc7)C(C)C)on6)CC5)nc4c3F)c12 :: class 0
